- Tested on: MS751 (Cervical Carcinoma);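 further: after 72 h of two-drug dosing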
- Assay remarks: Bliss excess, mean over the matrix (fraction); higher = more synergy
Value kind: Bliss excess
Keep the answer to the number alone.

Please review the following examples before continuing.
Incoming: Look up Bliss excess for this compound: CN(CCO)CC[C@H](CSc1ccccc1)Nc1ccc(S(=O)(=O)NC(=O)c2ccc(N3CCC([C@@H](O)c4ccccc4-c4ccc(Cl)cc4)CC3)cc2)cc1S(=O)(=O)C(F)(F)F [AZD4320] + C[C@@H]1COCCN1C2=NC(=NC(=C2)C3(CC3)[S@](=N)(=O)C)C4=C5C=CNC5=NC=C4 [AZD6738] (first compound max 1 µM, 7x7, partner max 10 µM)
Outgoing: 0.0029

Incoming: Look up Bliss excess for this compound: CC1(C)CCC(CN2CCN(c3ccc(C(=O)NS(=O)(=O)c4ccc(NCC5CCOCC5)c([N+](=O)[O-])c4)c(Oc4cnc5[nH]ccc5c4)c3)CC2)=C(c2ccc(Cl)cc2)C1 [Venetoclax] + C[C@@H]1COCCN1C2=NC(=NC(=C2)C3(CC3)[S@](=N)(=O)C)C4=C5C=CNC5=NC=C4 [AZD6738] (first compound max 1 µM, 7x7, partner max 10 µM)
Outgoing: 0.0094

***
Incoming: Look up Bliss excess for this compound: CC1(C)CCC(CN2CCN(c3ccc(C(=O)NS(=O)(=O)c4ccc(NCC5CCOCC5)c([N+](=O)[O-])c4)c(Oc4cnc5[nH]ccc5c4)c3)CC2)=C(c2ccc(Cl)cc2)C1 [Venetoclax] + Cn1cnc2c(F)c(Nc3ccc(Br)cc3Cl)c(C(=O)NOCCO)cc21 [Selumetinib] (first compound max 1 µM, 7x7, partner max 3 µM)
Outgoing: 0.0072

###

- Tested on: MFM-223 (Breast Carcinoma)
- Assay remarks: combination Emax (second highest fraction inhibited in the dose matrix, 72 h); higher = more inhibition; extreme values may be limits of the assay
# combination Emax annotations
Keep the answer to the number alone.

Incoming: Look up combination Emax for this molecule: Cn1cnc2c(F)c(Nc3ccc(Br)cc3Cl)c(C(=O)NOCCO)cc21 [Selumetinib] + C[C@@H]1COCCN1C2=NC(=NC(=C2)C3(CC3)[S@](=N)(=O)C)C4=C5C=CNC5=NC=C4 [AZD6738] (first compound max 10 µM, 7x7, partner max 10 µM)
Outgoing: 0.673

Incoming: Look up combination Emax for this molecule: COc1nnc2ccc(N3CCC(c4ccc(OCCN5CCN(C)C(=O)[C@H]5C)cc4)CC3)nn12 [AZD5153] + CC1(C)CCC(CN2CCN(c3ccc(C(=O)NS(=O)(=O)c4ccc(NCC5CCOCC5)c([N+](=O)[O-])c4)c(Oc4cnc5[nH]ccc5c4)c3)CC2)=C(c2ccc(Cl)cc2)C1 [Venetoclax] (first compound max 1 µM, 7x7, partner max 1 µM)
Outgoing: 0.305

Incoming: Look up combination Emax for this molecule: Cc1c2c(nn1C)CSCc1cc(n(C)n1)CSc1cc(c3ccccc3c1)OCCCc1c(C(=O)O)n(C)c3c-2c(Cl)ccc13 [AZD5991] + Cc1cc2ncnn2cc1Nc1ncc2c(n1)n(C1CCOCC1)c(=O)n2C [AZD7648] (first compound max 1 µM, 7x7, partner max 10 µM)
Outgoing: 0.288

Incoming: Look up combination Emax for this molecule: Cn1cnc2c(F)c(Nc3ccc(Br)cc3Cl)c(C(=O)NOCCO)cc21 [Selumetinib] + C=CCn1c(=O)c2cnc(Nc3ccc(N4CCN(C)CC4)cc3)nc2n1-c1cccc(C(C)(C)O)n1 [AZD1775] (first compound max 10 µM, partner max 1 µM)
Outgoing: 0.446

Incoming: Look up combination Emax for this molecule: Cc1cc2ncnn2cc1Nc1ncc2c(n1)n(C1CCOCC1)c(=O)n2C [AZD7648] + C=CCn1c(=O)c2cnc(Nc3ccc(N4CCN(C)CC4)cc3)nc2n1-c1cccc(C(C)(C)O)n1 [AZD1775] (first compound max 10 µM, partner max 1 µM)
Outgoing: 0.69

***
Incoming: Look up combination Emax for this molecule: COc1cccc(OCCCN)c1-c1cc(Nc2cnc(C#N)cn2)n[nH]1 [Prexasertib] + CN(C)CCCOc1ccc(-c2ccc3ncc4c(c3c2)n(C2CCOCC2)c(=O)n4C)cn1 [AZD0156] (first compound max 1 µM, 7x7, partner max 1 µM)
Outgoing: 0.74

Incoming: Look up combination Emax for this molecule: CC1(C)CCC(CN2CCN(c3ccc(C(=O)NS(=O)(=O)c4ccc(NCC5CCOCC5)c([N+](=O)[O-])c4)c(Oc4cnc5[nH]ccc5c4)c3)CC2)=C(c2ccc(Cl)cc2)C1 [Venetoclax] + C=CCn1c(=O)c2cnc(Nc3ccc(N4CCN(C)CC4)cc3)nc2n1-c1cccc(C(C)(C)O)n1 [AZD1775] (first compound max 1 µM, partner max 1 µM)
Outgoing: 0.457

Incoming: Look up combination Emax for this molecule: COc1nnc2ccc(N3CCC(c4ccc(OCCN5CCN(C)C(=O)[C@H]5C)cc4)CC3)nn12 [AZD5153] + Cn1cnc2c(F)c(Nc3ccc(Br)cc3Cl)c(C(=O)NOCCO)cc21 [Selumetinib] (first compound max 1 µM, 7x7, partner max 10 µM)
Outgoing: 0.507

Incoming: Look up combination Emax for this molecule: CS(=O)(=O)CCNCc1ccc(-c2ccc3ncnc(Nc4ccc(OCc5cccc(F)c5)c(Cl)c4)c3c2)o1 [Lapatinib] + C[C@@H](Oc1cc(-c2cnn(C3CCNCC3)c2)cnc1N)c1c(Cl)ccc(F)c1Cl [Crizotinib] (first compound max 10 µM, 7x7, partner max 10 µM)
Outgoing: 0.662

Incoming: Look up combination Emax for this molecule: COc1cccc(OCCCN)c1-c1cc(Nc2cnc(C#N)cn2)n[nH]1 [Prexasertib] + CCc1c2c(nc3ccc(O)cc13)-c1cc3c(c(=O)n1C2)COC(=O)[C@]3(O)CC [SN-38] (first compound max 1 µM, 7x7, partner max 0.3 µM)
Outgoing: 0.881

Incoming: Look up combination Emax for this molecule: CC(=O)Nc1cccc(-n2c(=O)n(C3CC3)c(=O)c3c(Nc4ccc(I)cc4F)n(C)c(=O)c(C)c32)c1 [Trametinib] + Cc1nc(-c2cn3c(n2)-c2ccc(-c4cnn(C(C)(C)C(N)=O)c4)cc2OCC3)n(C(C)C)n1 [Taselisib] (first compound max 1 µM, 7x7, partner max 10 µM)
Outgoing: 0.865

Incoming: Look up combination Emax for this molecule: COc1nnc2ccc(N3CCC(c4ccc(OCCN5CCN(C)C(=O)[C@H]5C)cc4)CC3)nn12 [AZD5153] + C=CCn1c(=O)c2cnc(Nc3ccc(N4CCN(C)CC4)cc3)nc2n1-c1cccc(C(C)(C)O)n1 [AZD1775] (first compound max 1 µM, partner max 1 µM)
Outgoing: 0.538

Reference for the values: the supplement of paper PMC11061612
